# assay details: Cytotoxicity in vitro, cellular viability (ATPlite Perkin Elmer test), C6
# Assay type: cell-based, rat
# stated conditions: rat, C6 rat glioma cells, C6; compound 10^−5 mole/litre; 72 hours
reported metric: viability at 72 h (%)
Give a bare numeral; the unit % is implied.

Task: Answer with the recorded viability at 72 h for the compound listed here: CC[C@H](C)[C@H](NC(=O)[C@H]1CCCCN1C)C(=O)N(CCOC)[C@H](C[C@@H](OC(C)=O)c1nc(C(=O)N[C@@H](Cc2ccccc2)C[C@H](C)C(=O)O)cs1)C(C)C
Output: 20.2

----------
# assay details: Cytotoxicity in vitro, cellular viability (ATPlite Perkin Elmer test), C6
# Assay type: cell-based, rat
# stated conditions: rat, C6 rat glioma cells, C6; compound 10^−6 mole/litre; 72 hours
reported metric: viability at 72 h (%)
Write the answer as a number in %, unit excluded.

Task: Give the reported viability at 72 h for this compound. CC[C@H](C)[C@H](NC(=O)[C@H]1CCCCN1C)C(=O)N(CCOC)[C@H](C[C@@H](OC(C)=O)c1nc(C(=O)N[C@@H](Cc2ccccc2)C[C@H](C)C(=O)O)cs1)C(C)C
Output: 19.6
